Quick list: pIC50 per entry.
# Assay Target: Fms kinase (Homo sapiens)
# Sequence (P07333 20-972): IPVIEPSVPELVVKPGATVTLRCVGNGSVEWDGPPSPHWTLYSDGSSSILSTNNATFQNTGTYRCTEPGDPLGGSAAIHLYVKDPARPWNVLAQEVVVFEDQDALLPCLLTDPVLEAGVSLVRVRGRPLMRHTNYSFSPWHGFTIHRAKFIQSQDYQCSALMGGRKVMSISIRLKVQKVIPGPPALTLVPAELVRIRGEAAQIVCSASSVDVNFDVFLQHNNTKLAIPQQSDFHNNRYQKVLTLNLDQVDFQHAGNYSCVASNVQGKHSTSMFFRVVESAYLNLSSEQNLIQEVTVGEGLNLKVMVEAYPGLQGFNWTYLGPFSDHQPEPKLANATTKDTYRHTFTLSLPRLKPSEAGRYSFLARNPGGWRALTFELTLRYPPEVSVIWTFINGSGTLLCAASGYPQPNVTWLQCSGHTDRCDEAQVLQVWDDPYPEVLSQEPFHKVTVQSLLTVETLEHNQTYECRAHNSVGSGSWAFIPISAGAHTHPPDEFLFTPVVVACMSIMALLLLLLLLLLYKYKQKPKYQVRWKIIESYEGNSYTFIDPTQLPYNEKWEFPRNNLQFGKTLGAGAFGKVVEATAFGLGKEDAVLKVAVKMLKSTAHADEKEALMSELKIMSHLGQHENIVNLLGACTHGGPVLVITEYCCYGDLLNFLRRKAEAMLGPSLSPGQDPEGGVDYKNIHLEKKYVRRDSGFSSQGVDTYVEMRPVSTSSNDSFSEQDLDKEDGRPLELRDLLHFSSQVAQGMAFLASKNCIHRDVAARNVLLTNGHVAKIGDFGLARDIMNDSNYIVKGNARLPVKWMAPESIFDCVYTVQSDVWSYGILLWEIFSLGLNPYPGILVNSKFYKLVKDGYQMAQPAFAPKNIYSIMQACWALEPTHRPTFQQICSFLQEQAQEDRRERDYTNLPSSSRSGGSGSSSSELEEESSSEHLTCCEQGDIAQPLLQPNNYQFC
# Method: Fms kinase biochemical activity assay (AlphaScreen, biotin-(E4Y)10 phosphorylation)
# Condition Info: 100 μM ATP; read-out: Biochemical Inhibition IC50 Fms
pIC50: −log10 of the molar value.

Below, 2 compounds whose answers are already recorded.
[[record]]
compound = "Cc1cnc2[nH]cc(Cc3cnc(Nc4cc(C(F)(F)F)n[nH]4)nc3)c2c1"
assay_target = "Fms kinase (Homo sapiens)"
measure = "pIC50"
result = "< 6.00"

[[record]]
compound = "CCc1ccc(Nc2ccc(C(=O)c3c[nH]c4ncnc(N[C@@H](C)c5ccc(F)cc5)c34)c(F)n2)cn1"
assay_target = "Fms kinase (Homo sapiens)"
measure = "pIC50"
result = "> 6.00"


Request: Give its pIC50 value. Item: `CCOc1ccc(Nc2ncc(Cc3c[nH]c4ncc(C)cc34)cn2)cn1`
Result: > 8.00

Request: For the compound `Cc1ccc(Nc2ccc(C(=O)c3c[nH]c4ncnc(NCC5CC5)c34)c(F)n2)cn1` , what pIC50 is on record?
Result: > 8.00

Request: What value of measured pIC50 is listed for `Clc1cnc2[nH]cc(Cc3cnc(NC4CC4)nc3)c2c1` ?
Result: > 6.00

Request: Please give the measured pIC50 for this compound: `CCOc1ncnc2[nH]cc(Cc3ccc(Nc4cnn(CC)c4)nc3F)c12`
Result: > 8.00
